measured-on: DLG4_1, P78352
Sequence (P78352 62-152): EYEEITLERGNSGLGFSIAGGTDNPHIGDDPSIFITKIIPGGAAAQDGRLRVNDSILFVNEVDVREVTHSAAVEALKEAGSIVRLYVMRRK
assay-text: holdup assay
Parameters: key: below the threshold = too weak to quantify, mostly under pKd 3.1 to 4
experimental-parameters: plain residues with an end cap or a label only (N-terminal biotin on a linker: ado-ado)
Please provide measured pKd for the entries that follow.
Answers are plain numbers.

Requested read-out: pKd. Entry: KPGKGSETVV [FZD4, Q9ULV1] 4.85

Could you now consider this next binder?
Requested read-out: pKd. Entry: ARESQKVSHV [FAM110B, Q8TC76] 4.06
